studySystem: human FAK (Homo sapiens)
Construct: The complete cDNA of human FAK; made in house; host or cells: baculovirus expression system (vector pFastBac HTc)
Sequence (Q05397 whole entry): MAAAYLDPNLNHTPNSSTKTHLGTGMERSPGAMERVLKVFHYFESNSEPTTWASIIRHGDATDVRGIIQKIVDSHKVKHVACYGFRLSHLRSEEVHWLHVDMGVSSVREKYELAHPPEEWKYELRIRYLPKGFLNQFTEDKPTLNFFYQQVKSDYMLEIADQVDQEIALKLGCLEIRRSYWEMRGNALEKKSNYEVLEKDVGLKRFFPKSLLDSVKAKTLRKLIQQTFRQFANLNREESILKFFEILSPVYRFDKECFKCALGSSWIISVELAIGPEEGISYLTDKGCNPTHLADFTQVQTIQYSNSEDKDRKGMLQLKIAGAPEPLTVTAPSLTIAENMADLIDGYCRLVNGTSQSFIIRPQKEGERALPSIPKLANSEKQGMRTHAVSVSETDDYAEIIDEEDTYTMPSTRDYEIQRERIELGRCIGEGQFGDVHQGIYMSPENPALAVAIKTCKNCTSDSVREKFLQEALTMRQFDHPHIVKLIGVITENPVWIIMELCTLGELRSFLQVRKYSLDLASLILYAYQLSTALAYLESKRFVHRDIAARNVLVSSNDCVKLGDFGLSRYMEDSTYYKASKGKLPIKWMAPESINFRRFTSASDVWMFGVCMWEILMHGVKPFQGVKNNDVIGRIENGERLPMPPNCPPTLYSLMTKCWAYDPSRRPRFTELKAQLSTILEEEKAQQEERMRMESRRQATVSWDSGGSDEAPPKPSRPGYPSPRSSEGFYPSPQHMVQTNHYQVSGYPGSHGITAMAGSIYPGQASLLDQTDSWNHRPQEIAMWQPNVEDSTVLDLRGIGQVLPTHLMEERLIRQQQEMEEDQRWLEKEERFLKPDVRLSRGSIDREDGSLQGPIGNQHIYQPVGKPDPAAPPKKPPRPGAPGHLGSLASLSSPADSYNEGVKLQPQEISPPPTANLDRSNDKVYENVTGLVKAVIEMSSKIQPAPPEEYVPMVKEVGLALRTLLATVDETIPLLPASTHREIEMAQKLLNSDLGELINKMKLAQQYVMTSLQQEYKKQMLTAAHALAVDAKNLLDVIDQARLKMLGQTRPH
assayDetails: FAK autophosphorylation inhibition, time resolved fluorescence (HTRF) assay
Type: biochemical
runConditions: 10 μM (values without asterisk); read-out: FAK % inhib at 10 μM
measurementLabel: inhibition at 10 µM (%)
Numbers only, in %.

Please review the entries below; each comes with its answer.
INSERT INTO assay_data (smilesinput, datavalue) VALUES
  ('O=S(=O)(Nc1ccc2[nH]nc(-c3ccccc3)c2c1)C1CCCCC1', 44),
  ('CC(=O)Nc1n[nH]c2ccc(NS(=O)(=O)c3cc(F)cc(F)c3)cc12', 95),
  ('O=S(=O)(Nc1ccc2[nH]nc(-c3ccccc3)c2c1)c1ccccc1C(F)(F)F', 61),
  ('CS(=O)(=O)c1ccccc1S(=O)(=O)Nc1ccc2[nH]nc(-c3cccc4ccccc34)c2c1', 21),
  ('CS(=O)(=O)c1ccccc1S(=O)(=O)Nc1ccc2[nH]nc(C(N)=O)c2c1', 76);

Need inhibition at 10 µM for each of these molecules.
1. O=C(Nc1ccccc1)c1n[nH]c2ccc(NS(=O)(=O)c3cccc(F)c3)cc12
2. COc1ccc(Cl)cc1-c1n[nH]c2ccc(NS(=O)(=O)c3ccccc3S(C)(=O)=O)cc12
3. O=S(=O)(Nc1ccc2[nH]nc(O)c2c1)c1cccc(F)c1
4. CS(=O)(=O)c1ccccc1S(=O)(=O)Nc1ccc2[nH]nc(-c3cc4cccnc4[nH]3)c2c1
5. C[Si](C)(C)C#Cc1cccc(-c2n[nH]c3ccc(NS(=O)(=O)c4ccccc4S(C)(=O)=O)cc23)c1
6. COc1ccc(-c2n[nH]c3ccc(NS(=O)(=O)c4ccccc4S(C)(=O)=O)cc23)c(OC)c1OC
7. Cc1cccc(S(=O)(=O)Nc2ccc3[nH]nc(-c4ccccc4)c3c2)c1
8. COC(=O)c1cccc(-c2n[nH]c3ccc(NS(=O)(=O)c4ccccc4S(C)(=O)=O)cc23)c1

Output:
1. 89
2. 97
3. 58
4. 48
5. 95
6. 60
7. 47
8. 98

Need inhibition at 10 µM for each of these molecules.
1. CS(=O)(=O)c1ccccc1S(=O)(=O)Nc1ccc2[nH]nc(-c3cccc(C#N)c3)c2c1
2. O=S(=O)(Nc1ccc2[nH]nc(-c3ccccc3)c2c1)c1ccccc1
3. O=[N+]([O-])c1cccc(S(=O)(=O)Nc2ccc3[nH]nc(-c4ccccc4)c3c2)c1
4. CS(=O)(=O)c1ccccc1S(=O)(=O)Nc1ccc2[nH]nc(-c3csc4ccccc34)c2c1
5. CS(=O)(=O)c1ccccc1S(=O)(=O)Nc1ccc2[nH]nc(-c3nc4ccccc4[nH]3)c2c1
6. O=S(=O)(Nc1ccc2[nH]nc(-c3ccccc3)c2c1)c1cccc(-c2ccccc2)c1
7. CS(=O)(=O)c1ccccc1S(=O)(=O)Nc1ccc2[nH]nc(-c3ccc(OC(F)(F)F)cc3)c2c1
8. O=S(=O)(Nc1ccc2[nH]nc(-c3ccccc3)c2c1)c1cccc2ccccc12

Output:
[97, 75, 50, 30, 98, 0, 58, 43]

Need inhibition at 10 µM for each of these molecules.
1. CS(=O)(=O)c1ccccc1S(=O)(=O)Nc1ccc2[nH]nc(-c3ccc(O)cc3)c2c1
2. O=S(=O)(Nc1ccc2[nH]nc(-c3ccccc3)c2c1)c1cccc2nonc12
3. O=S(=O)(Nc1ccc2[nH]nc(-c3cc4ccccc4[nH]3)c2c1)c1ccccc1
4. CS(=O)(=O)c1ccccc1S(=O)(=O)Nc1ccc2[nH]nc(N)c2c1
5. Nc1n[nH]c2ccc(NS(=O)(=O)c3cc(F)cc(F)c3)cc12
6. Cc1ccc(-c2n[nH]c3ccc(NS(=O)(=O)c4ccccc4S(C)(=O)=O)cc23)cc1
7. CS(=O)(=O)c1ccccc1S(=O)(=O)Nc1ccc2[nH]nc(-c3cc(Br)cc(Br)c3)c2c1

Output:
1: 97; 2: 78; 3: 93; 4: 96; 5: 100; 6: 90; 7: 95

Input: Record request: inhibition at 10 µM value, item `CS(=O)(=O)c1ccccc1S(=O)(=O)Nc1ccc2[nH]nc(-c3ccc(Cl)c(Cl)c3)c2c1`
Output: 90
